# tested on: ALK (human)
# test method notes: radiometric filter-binding kinase assay, Kinase HotSpot
# experimental parameters: compound 0.5 µM; ATP 10 µM
// assign yes if residual activity falls strictly below 90%, else no (ties count as no)

For orientation, consider the following solved cases.
1) O=C1NC(=O)c2c1c1c3ccccc3n3c1c1c2c2ccccc2n1C1CCC3O1 = yes
2) CCCC(=O)Oc1ccc2[nH]c(C(=O)c3cc4ccccc4[nH]3)cc2c1 = yes
3) O=S(=O)(c1cccc2cnccc12)N1CCCNCC1 = no
4) Cc1ccc(NC2=CC(=O)c3sc(C)nc3C2=O)cc1 = no
5) O=c1cc(N2CCOCC2)oc2c1ccc1ccccc12 = no
6) CCN(CC)CCNC(=O)c1c(C)[nH]c(/C=C2\C(=O)Nc3ccc(F)cc32)c1C = yes

Task: Could you please tell me whether residual activity recorded for `CCOC(=O)c1c(C)[nH]c(/C=C2\C(=O)Nc3ccccc32)c1C` is less than 90%?
Result: yes

Task: Could you please tell me whether residual activity recorded for `COc1ccc(COc2ccc(Cc3cnc(N)nc3N)cc2OC)cc1` is less than 90%?
Result: no

Task: Could you please tell me whether residual activity recorded for `O=C(Nc1cccc(Nc2nccc(Nc3cccc(C(F)(F)F)c3)n2)c1)C1CC1` is less than 90%?
Result: no
